Attribution: the Human Domainome abundance scans (Beltran et al. 2025)

B1: POU domain, class 4, transcription factor 1, residues 266 to 347; numbered along this chain, Q01851 (parent)
chain: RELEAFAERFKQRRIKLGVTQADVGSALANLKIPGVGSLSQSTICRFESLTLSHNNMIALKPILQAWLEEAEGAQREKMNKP

variants of: B1; experiment: abundance fitness (aPCA) (normalised: wild type 0, dead -1); higher = more abundant; growth selection in yeast, the domain comes from the species named; settings: Homo sapiens

CHANGE	abundance fitness
R14S	-0.906
I33H	-0.147
Q12P	-0.896
L17C	-0.31
T51L	-0.022
N30W	-0.144
L50Q	-0.01
L39C	-0.096
G18A	-0.268
Q12Y	-0.13
S40V	-0.331
P34E	0.027
L28S	-0.639
L64N	-0.431
I15F	-0.322
Q65H	-0.047
T20V	-0.567
Q21R	-0.058
L39H	-0.113
E77Y	-0.009
G37D	-0.092
I33T	-0.145
R76L	0.012
L31I	-0.028
V19G	-0.55
F47T	-0.822
A66S	-0.005
L17G	-0.802
V36C	-0.225
D23Y	-0.115
L28N	-0.459
S26G	-0.032
C45W	-0.076
G37I	-0.116
E70Y	-0.145
T20L	-0.078
Q21S	-0.09
L31K	0.038
A74R	-0.008
V19L	-0.016
N56E	0.032
N30I	0.054
E72M	-0.349
P82M	0.008
S53D	-0.136
W67Y	-0.175
